molecular target: T1, NDC80 Peptide A … / HLA-A*02:01 complex (human); assay: FACS, scFv phage on peptide-loaded T2 cells
T1 construct: whole, on cells; On peptide-pulsed T2 cells (HLA-A*02:01+); also called NDC80/HLA-A*02:01 complex; NDC80/MHC I
READOUT_TYPE: binding result

Clone 19 scFv phage clone (Clone 19 scFv) (scFv) scFv: NFMLTQPHSVSESPGKTVTISCVRSSGSVASEFVQWYQQRPGHAPTLVIYNDFQRPSGVPDRFSGSIDKSSNSASLTISGLKAEDEADYYCQSYDQSSSIVFGGGTKLTVLGSRGGGGSGGGGSGGGGSLEMAEVQLVQSGAEVKKPGESLKISCKGSGYSFTTYWIGWVRQMPGKGLEWMGIIYPGDSDTTYSPSFQGQVTISADKSLSIAYLQWSSLKASDTAMYYCARYGGQYFWSDSFDSWGQGTLVTVSS    binds
Clone 7 scFv phage clone (Clone 07 scFv) (scFv) scFv: QSVVTQPPSVSGAPGQRITISCTGSSSNIGAGYDVHWYQQLPGTAPKLLIFGNVNRPSGVPDRFSGSKSGTSASLAITGLQAEDEADYYCQSYDSSLSGWVFGGGTKLTVLGSRGGGGSGGGGSGGGGSLEMAQVQLQQSGAEVKKPGATVKVSCKASGYTFTSYGISWVRQAPGQGLEWMGWISAYNGNTNYAQKLQGRVTMTTDTSTSTAYMELRSLRSDDTAVYYCARMSMSEYIDYWGQGTLVTVSS    binds
Clone 6 scFv phage clone (scFv, V domains shown) VH: QVQLQQWGAGLLKPSETLSLTCAVYGGSFSGYYWSWIRQPPGKGLEWIGEINHSGSTNYNPSLKSRVTISVDTSKNQFSLKLSSVTAADTAVYYCARLEGSYYDVWGQGTLVTVSS VL: QSVLTQPPSVSAAPGQKVTVSCSGTTSDIGSNYVTWYQQLPGTTPKLIIYDNNKRPSGIPDRFSGSKSGTSGTLGITGLQTGDEADYYCGTWDSSLNTFVFGTGTKVTVLG    binds

Where do the numbers come from? From patent US20230374140A1.
